So I've got a bunch of molecules here, and I need their -log IC50 values.
Tested on: LTD4 evoked ileal contractions
Assay: LTD4 antagonism: inhibition of LTD4 evoked ileal contractions (isolated guinea pig ileum)
Set-up: species or system guinea pig (male, Hartley)
Conditions: 50% inhibition of LTD4 responses; interpolated by linear regression from 2-4 concentrations
Write no unit; give the number alone.

Q: Read off the recorded -log IC50 for `CCCc1c(COc2ccc(C(=O)c3cccc(-c4nnn[nH]4)c3)cc2)ccc(C(C)=O)c1O`
A: 8.58

Q: Consider the molecule `CCCc1c(COc2ccc(C(=O)c3ccc(-c4nnn[nH]4)cc3)cc2)ccc(C(C)=O)c1O` and give its recorded -log IC50.
A: 8.29

Q: Fill in -log IC50 for record `CCCc1c(COc2ccc(Oc3ccc(-c4nnn[nH]4)cc3)cc2)ccc(C(C)=O)c1O`
A: 7.08

Q: Specify reported -log IC50 for the molecule shown: CCCc1c(COc2ccc(C(O)c3cccc(-c4nnn[nH]4)c3)cc2)ccc(C(C)=O)c1O (stereo not shown)
A: 7.89
